Origin of the recorded values: patent US20250270209A1

molecular target: wild type LRRK2 overexpressed in recombinant HEK-293T cells (Homo sapiens, UniProt Q5S007); test: pS935 LRRK2 Cell Assay (HTRF, phospho-LRRK2 Ser935); conditions: LRRK2 Inhibition, Table 8, 2 hours compound incubation
pIC50: −log10 of the molar value.
Entry flag: y if pIC50 reaches 7; n if it does not.

Worked examples follow.
[[record]]
compound = "Cc1ncncc1NC(=O)Cc1nc2cnc3ccc(C#N)cc3c2n1[C@@H]1CCO[C@H](C)C1 [Compound 216]"
assayed_system = "wild type LRRK2 overexpressed in recombinant HEK-293T cells (Homo sapiens, UniProt Q5S007)"
qualitative_label = "y"

[[record]]
compound = "C[C@@H]1C[C@H](n2c(CC(=O)N[C@@H]3CCCc4cccnc43)nc3cnc4ccc(C#N)cc4c32)CCO1 [Compound 357]"
assayed_system = "wild type LRRK2 overexpressed in recombinant HEK-293T cells (Homo sapiens, UniProt Q5S007)"
qualitative_label = "y"

[[record]]
compound = "CCn1cc(NC(=O)Cc2nc3cnc4ccc(C#N)cc4c3n2[C@@H]2CCO[C@H](C)C2)cn1 [Compound 310]"
assayed_system = "wild type LRRK2 overexpressed in recombinant HEK-293T cells (Homo sapiens, UniProt Q5S007)"
qualitative_label = "y"

[[record]]
compound = "C[C@@H]1C[C@H](n2c(CNc3ncco3)nc3cnc4ccc(C#N)cc4c32)CCO1 [Compound 11]"
assayed_system = "wild type LRRK2 overexpressed in recombinant HEK-293T cells (Homo sapiens, UniProt Q5S007)"
qualitative_label = "n"


stdin: In plain terms: is recorded pIC50 at least 7 for Cc1ccc(CN2CC(c3nc4cnc5ccc(C#N)cc5c4n3[C@@H]3CCO[C@H](C)C3)CC2=O)cn1 (stereo partly shown) [Compound 13] ?
stdout: n

stdin: In plain terms: is recorded pIC50 at least 7 for C[C@@H]1C[C@H](n2c(CC(=O)Nc3ccncc3)nc3cnc4ccc(C#N)cc4c32)CCO1 [Compound 326] ?
stdout: y

---

target: wild type LRRK2 overexpressed in recombinant HEK-293T cells (Homo sapiens, UniProt Q5S007); test: pS935 LRRK2 Cell Assay (HTRF, phospho-LRRK2 Ser935); details: LRRK2 Inhibition, Table 8, 2 hours compound incubation
Below, each of the compounds is paired with its reported pIC50 value.
pIC50 here: minus log base 10 of the concentration, concentration in moles per litre.

[[record]]
compound = "COc1cc(F)ncc1NC(=O)Cc1nc2cnc3ccc(C#N)cc3c2n1[C@@H]1CCO[C@H](C)C1"
metric_name = "pIC50"
value_measured = 8.31

[[record]]
compound = "C[C@@H]1C[C@H](n2c(CC(=O)N[C@H]3C[C@@H](OCc4ccccn4)C3)nc3cnc4ccc(C#N)cc4c32)CCO1"
metric_name = "pIC50"
value_measured = 7.26

[[record]]
compound = "C[C@@H]1C[C@H](n2c(CC(=O)Nc3cnn(C)c(=O)c3)nc3cnc4ccc(C#N)cc4c32)CCO1"
metric_name = "pIC50"
value_measured = 7.13

[[record]]
compound = "COc1nccnc1NC(=O)Cc1nc2cnc3ccc(C#N)cc3c2n1[C@@H]1CCO[C@H](C)C1"
metric_name = "pIC50"
value_measured = 8.25

[[record]]
compound = "C[C@@H]1C[C@H](n2c(C3CN(C(=O)C4CC4)C3)nc3cnc4ccc(C#N)cc4c32)CCO1"
metric_name = "pIC50"
value_measured = 5.94


stdin: Which pIC50 reading was recorded for the compound C[C@@H]1C[C@H](n2c(C3CC(=O)N(Cc4cccnc4)C3)nc3cnc4ccc(C#N)cc4c32)CCO1 (mixture of isomers) [Compound 57] ?
stdout: 6.67

stdin: Which pIC50 reading was recorded for the compound C[C@@H]1C[C@H](n2c(CC(=O)NC(C)(C)c3ccccn3)nc3cnc4ccc(C#N)cc4c32)CCO1 ?
stdout: 8.59

---

molecular target: wild type LRRK2 overexpressed in recombinant HEK-293T cells (Homo sapiens); experiment: pS935 LRRK2 Cell Assay (HTRF, phospho-LRRK2 Ser935); settings: LRRK2 Inhibition, Table 8, 2 hours compound incubation
Below, each of the molecules is paired with its reported IC50 value.
Field format: number, assumed nM, no unit text.

Worked cases, IC50 given:
[[record]]
molecule = "C[C@@H]1C[C@H](n2c(CC(=O)Nc3cccnc3O)nc3cnc4ccc(C#N)cc4c32)CCO1 [Compound 218]"
value_measured = 83.5

[[record]]
molecule = "C[C@@H]1C[C@H](n2c(CC(=O)NC3CCc4cccnc43)nc3cnc4ccc(C#N)cc4c32)CCO1 (some centres unmarked) [Compound 151]"
value_measured = 23.3

[[record]]
molecule = "C[C@@H]1C[C@H](n2c([C@H]3CCN(S(=O)(=O)C4CC4)C3)nc3cnc4ccc(C#N)cc4c32)CCO1 [Compound 25]"
value_measured = 563


stdin: Which IC50 reading was recorded for the molecule C[C@@H]1C[C@H](n2c(CC(=O)NCc3cccnn3)nc3cnc4ccc(Cl)cc4c32)CCO1 [Compound 148] ?
stdout: 4.5

stdin: Which IC50 reading was recorded for the molecule Cc1ncnc(C)c1NC(=O)Cc1nc2cnc3ccc(C#N)cc3c2n1[C@@H]1CCO[C@H](C)C1 [Compound 260] ?
stdout: 30.4

stdin: Which IC50 reading was recorded for the molecule C[C@@H]1C[C@H](n2c(CNC(=O)c3cnn(C)c3)nc3cnc4ccc(C#N)cc4c32)CCO1 [Compound 20] ?
stdout: 224

stdin: Which IC50 reading was recorded for the molecule Cc1c(NC(=O)Cc2nc3cnc4ccc(C#N)cc4c3n2[C@@H]2CCO[C@H](C)C2)cnn1C [Compound 237] ?
stdout: 23.4

stdin: Which IC50 reading was recorded for the molecule CC(=O)N1CC[C@H](c2nc3cnc4ccc(C#N)cc4c3n2[C@@H]2CCO[C@H](C)C2)C1 [Compound 43] ?
stdout: 1680

stdin: Which IC50 reading was recorded for the molecule COCC(C)(C)CNC(=O)Cc1nc2cnc3ccc(C#N)cc3c2n1[C@@H]1CCO[C@H](C)C1 [Compound 266] ?
stdout: 8

stdin: Which IC50 reading was recorded for the molecule C[C@@H]1C[C@H](n2c(CC(=O)Nc3ccn(C)n3)nc3cnc4ccc(C#N)cc4c32)CCO1 [Compound 188] ?
stdout: 7.58

stdin: Which IC50 reading was recorded for the molecule C[C@@H]1C[C@H](n2c(CC(=O)NC3(CF)CC3)nc3cnc4ccc(C#N)cc4c32)CCO1 [Compound 294] ?
stdout: 132

stdin: Which IC50 reading was recorded for the molecule C[C@@H]1C[C@H](n2c(CC(=O)NC3CC3)nc3cnc4ccc(C#N)cc4c32)CCO1 [Compound 5] ?
stdout: 35.6

stdin: Which IC50 reading was recorded for the molecule C[C@@H]1C[C@H](n2c(CC(=O)Nc3cncnc3O)nc3cnc4ccc(C#N)cc4c32)CCO1 [Compound 211] ?
stdout: 1690

stdin: Which IC50 reading was recorded for the molecule C[C@@H]1C[C@H](n2c(CC(=O)Nc3ccccn3)nc3cnc4ccc(C#N)cc4c32)CCO1 [Compound 155] ?
stdout: 2.87

---

molecular target: LRRK2 wild type enzyme (Homo sapiens, UniProt Q5S007)
Sequence (Q5S007 whole entry): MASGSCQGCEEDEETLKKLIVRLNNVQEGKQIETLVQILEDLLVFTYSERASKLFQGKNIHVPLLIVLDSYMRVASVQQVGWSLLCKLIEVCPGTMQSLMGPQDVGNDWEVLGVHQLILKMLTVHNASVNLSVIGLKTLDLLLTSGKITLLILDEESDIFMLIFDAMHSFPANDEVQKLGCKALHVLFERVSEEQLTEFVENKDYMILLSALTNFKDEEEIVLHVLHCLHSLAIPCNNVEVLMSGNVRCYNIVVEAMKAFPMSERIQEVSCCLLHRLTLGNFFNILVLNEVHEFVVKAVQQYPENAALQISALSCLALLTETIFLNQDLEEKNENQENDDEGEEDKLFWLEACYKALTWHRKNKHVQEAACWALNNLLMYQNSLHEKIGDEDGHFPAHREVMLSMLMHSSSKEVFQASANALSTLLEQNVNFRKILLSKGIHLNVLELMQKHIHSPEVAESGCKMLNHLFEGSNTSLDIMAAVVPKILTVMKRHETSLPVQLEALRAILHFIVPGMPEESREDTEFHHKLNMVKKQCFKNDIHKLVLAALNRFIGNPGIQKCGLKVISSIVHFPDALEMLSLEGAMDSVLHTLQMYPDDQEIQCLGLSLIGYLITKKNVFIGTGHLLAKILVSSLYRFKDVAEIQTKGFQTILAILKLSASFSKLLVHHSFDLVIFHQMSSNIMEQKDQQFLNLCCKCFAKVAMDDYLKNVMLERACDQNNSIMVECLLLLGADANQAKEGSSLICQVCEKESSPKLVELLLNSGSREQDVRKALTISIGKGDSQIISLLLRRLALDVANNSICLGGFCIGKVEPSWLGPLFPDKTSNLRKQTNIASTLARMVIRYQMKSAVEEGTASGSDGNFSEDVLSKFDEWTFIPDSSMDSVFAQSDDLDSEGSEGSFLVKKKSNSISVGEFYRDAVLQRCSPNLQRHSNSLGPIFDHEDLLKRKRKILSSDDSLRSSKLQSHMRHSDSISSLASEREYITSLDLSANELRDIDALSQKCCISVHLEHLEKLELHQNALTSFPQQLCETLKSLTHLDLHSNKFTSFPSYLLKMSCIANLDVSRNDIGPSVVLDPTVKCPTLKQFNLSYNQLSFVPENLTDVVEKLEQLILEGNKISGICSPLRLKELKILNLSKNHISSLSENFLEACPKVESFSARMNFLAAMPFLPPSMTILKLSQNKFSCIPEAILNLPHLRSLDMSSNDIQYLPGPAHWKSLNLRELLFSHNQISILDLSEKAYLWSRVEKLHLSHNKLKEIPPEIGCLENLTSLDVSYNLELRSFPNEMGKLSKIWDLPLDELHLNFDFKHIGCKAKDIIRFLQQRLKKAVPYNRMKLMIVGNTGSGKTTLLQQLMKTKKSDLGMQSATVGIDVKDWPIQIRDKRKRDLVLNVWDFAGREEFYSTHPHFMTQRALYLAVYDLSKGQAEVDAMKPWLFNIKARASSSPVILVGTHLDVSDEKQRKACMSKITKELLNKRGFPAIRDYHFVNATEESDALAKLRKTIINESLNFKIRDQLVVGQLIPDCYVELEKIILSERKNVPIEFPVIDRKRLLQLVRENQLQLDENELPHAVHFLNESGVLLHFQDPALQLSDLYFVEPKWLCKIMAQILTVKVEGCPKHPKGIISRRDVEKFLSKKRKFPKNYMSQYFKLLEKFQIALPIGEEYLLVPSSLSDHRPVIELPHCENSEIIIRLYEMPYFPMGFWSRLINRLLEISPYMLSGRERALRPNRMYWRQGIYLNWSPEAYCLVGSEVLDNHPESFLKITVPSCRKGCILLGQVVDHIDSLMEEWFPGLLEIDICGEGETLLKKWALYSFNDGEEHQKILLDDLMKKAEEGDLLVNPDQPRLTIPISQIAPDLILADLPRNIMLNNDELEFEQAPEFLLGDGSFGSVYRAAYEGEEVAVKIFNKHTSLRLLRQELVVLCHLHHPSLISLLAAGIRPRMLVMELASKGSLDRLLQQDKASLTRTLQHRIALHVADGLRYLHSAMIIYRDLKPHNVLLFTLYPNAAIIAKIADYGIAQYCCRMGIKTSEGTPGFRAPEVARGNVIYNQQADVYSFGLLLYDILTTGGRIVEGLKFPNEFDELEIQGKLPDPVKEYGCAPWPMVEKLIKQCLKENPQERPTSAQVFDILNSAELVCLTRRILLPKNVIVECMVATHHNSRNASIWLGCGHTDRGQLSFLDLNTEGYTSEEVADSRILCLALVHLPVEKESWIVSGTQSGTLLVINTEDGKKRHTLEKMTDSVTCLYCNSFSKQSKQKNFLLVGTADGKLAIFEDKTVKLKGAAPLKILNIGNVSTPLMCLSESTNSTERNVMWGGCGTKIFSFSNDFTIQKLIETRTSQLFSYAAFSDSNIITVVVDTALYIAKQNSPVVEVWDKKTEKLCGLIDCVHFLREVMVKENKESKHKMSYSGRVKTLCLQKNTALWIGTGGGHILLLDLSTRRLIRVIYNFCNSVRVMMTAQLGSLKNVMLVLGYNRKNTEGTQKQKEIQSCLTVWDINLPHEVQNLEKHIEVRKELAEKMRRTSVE
metric name: pIC50
pIC50 here: minus log base 10 of the concentration, concentration in moles per litre.

Worked cases, pIC50 given:
[[record]]
cpd_smiles = "C[C@@H]1C[C@H](n2c(C3CCN(C(=O)c4cccnn4)CC3)nc3cnc4ccc(C#N)cc4c32)CCO1"
assayed_system = "LRRK2 wild type enzyme (Homo sapiens, UniProt Q5S007)"
value_measured = 8.91

[[record]]
cpd_smiles = "C[C@@H]1C[C@H](n2c(CNC(=O)CC3CC3)nc3cnc4ccc(C#N)cc4c32)CCO1"
assayed_system = "LRRK2 wild type enzyme (Homo sapiens, UniProt Q5S007)"
value_measured = 8.59

[[record]]
cpd_smiles = "C[C@@H]1C[C@H](n2c(CC(=O)NC(C)(C)c3ccccn3)nc3cnc4ccc(C#N)cc4c32)CCO1"
assayed_system = "LRRK2 wild type enzyme (Homo sapiens, UniProt Q5S007)"
value_measured = 9.38

[[record]]
cpd_smiles = "C[C@@H]1C[C@H](n2c(CC(=O)Nc3nccc(C(F)(F)F)n3)nc3cnc4ccc(C#N)cc4c32)CCO1"
assayed_system = "LRRK2 wild type enzyme (Homo sapiens, UniProt Q5S007)"
value_measured = 9.34

[[record]]
cpd_smiles = "COc1ncc(NC(=O)Cc2nc3cnc4ccc(C#N)cc4c3n2[C@@H]2CCO[C@H](C)C2)c(C2CC2)n1"
assayed_system = "LRRK2 wild type enzyme (Homo sapiens, UniProt Q5S007)"
value_measured = 9.38


stdin: Form field - read-out: pIC50; system: LRRK2 wild type enzyme (Homo sapiens, UniProt Q5S007); submitted item: C[C@@H]1C[C@H](n2c(CC(=O)NCc3ccccn3)nc3cnc4ccc(C#N)cc4c32)CCO1
stdout: 9.37

stdin: Form field - read-out: pIC50; system: LRRK2 wild type enzyme (Homo sapiens, UniProt Q5S007); submitted item: C[C@@H]1C[C@H](n2c(CC(=O)NC3(c4ccccn4)CC3)nc3cnc4ccc(C#N)cc4c32)CCO1
stdout: 9.27
